Biological target: BtGH84 (Bacteroides thetaiotaomicron)
Construct: made in house
Experiment: 4MU-GlcNAc cleavage assay (fluorescent kinetic enzyme activity assay)
Assay type: biochemical
Details: affinity of activator to the substrate-bound enzyme; covariation experiments; read-out: αKA
ENDPOINT: pKd
Notebook: values listed as pKd are -log10 of the concentration (mol/L).

State its pKd on BtGH84 (Bacteroides thetaiotaomicron): CCOc1ncnc2sc(C)c(C)c12
2.96

###

Molecular target: BtGH84 (Bacteroides thetaiotaomicron, UniProt Q89ZI2)
Construct: made in house
Sequence (Q89ZI2 22-737, change not shown): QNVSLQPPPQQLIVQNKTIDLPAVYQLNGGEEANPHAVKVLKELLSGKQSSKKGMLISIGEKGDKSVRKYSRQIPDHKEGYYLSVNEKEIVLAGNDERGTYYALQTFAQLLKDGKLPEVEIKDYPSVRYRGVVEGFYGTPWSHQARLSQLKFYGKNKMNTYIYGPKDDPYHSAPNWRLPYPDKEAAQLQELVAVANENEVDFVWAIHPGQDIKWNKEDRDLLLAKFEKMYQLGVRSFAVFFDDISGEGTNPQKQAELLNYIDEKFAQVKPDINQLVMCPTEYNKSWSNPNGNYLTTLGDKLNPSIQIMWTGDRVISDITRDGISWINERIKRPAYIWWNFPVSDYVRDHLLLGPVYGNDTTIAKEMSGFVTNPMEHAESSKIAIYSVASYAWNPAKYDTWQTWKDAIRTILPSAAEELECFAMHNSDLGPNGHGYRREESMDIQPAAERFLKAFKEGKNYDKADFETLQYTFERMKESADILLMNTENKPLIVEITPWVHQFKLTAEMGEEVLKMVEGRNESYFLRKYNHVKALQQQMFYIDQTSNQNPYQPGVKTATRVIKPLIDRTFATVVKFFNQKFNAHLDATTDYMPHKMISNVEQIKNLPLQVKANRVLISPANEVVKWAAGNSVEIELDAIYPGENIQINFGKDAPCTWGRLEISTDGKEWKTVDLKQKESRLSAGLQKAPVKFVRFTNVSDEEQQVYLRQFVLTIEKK
Assay: Isothermal titration calorimetry (ITC)
Assay type: binding
Conditions: in the absence of 2; 25°C
Method: AC50 measurements of fragment activators were performed using a fluorescent kinetic assay. […] Fluorescent 4-methylumbelliferyl release was recorded continuously at 355 nm excitation and 460 nm emission for 20 s using a BMG PolarStar Optima plate reader. Rates were calculated using Sigmaplot as the slope of the curve of the collected data. […] Apparent KM and Vmax values were calculated from a Michalis-Menten curve fit to 8-10 point substrate titrations at a constant concentration of the activator. […]
ENDPOINT: pKd
pKd here: minus log base 10 of the concentration, concentration in moles per litre.

I would be grateful if you could share the reported pKd for CC(=O)N[C@H]1/C(=N/OC(=O)Nc2ccccc2)O[C@H](CO)[C@@H](O)[C@@H]1O .
5.41

###

Target: BtGH84 (Bacteroides thetaiotaomicron)
Construct: made in house
Assay: 4MU-GlcNAc cleavage assay (fluorescent kinetic enzyme activity assay)
Type: biochemical
Conditions: titration of activator from 50 μM to 2 mM; substrate concentration 500 μM; read-out: Maximum activation
# Emax listing for each entry below
Be sure to follow the number with its unit.

{"columns": ["COMPOUND_STRUCTURE", "Emax"],
 "data": [
  ["CCc1cc2c(N3CCOCC3)ncnc2s1", "329%"],
  ["c1nc(N2CCOCC2)c2ccsc2n1", "234%"],
  ["CCOc1ncnc2sc(C)c(C)c12", "284%"]
]}

What measured Emax goes with Cc1sc2ncnc(N3CCOCC3)c2c1C ?
371%

###

Target: BtGH84 (Bacteroides thetaiotaomicron)
Construct: made in house
Assay: 4MU-GlcNAc cleavage assay (fluorescent kinetic enzyme activity assay)
Format: biochemical
Conditions: titration of activator from 50 μM to 2 mM; substrate concentration 500 μM
ENDPOINT: AC50 (µM)
State just the number; it will be interpreted in µM.

Please review the following examples before continuing.
{"columns": ["COMPOUND_STRUCTURE", "AC50 / µM"],
 "data": [
  ["CCc1cc2c(N3CCOCC3)ncnc2s1", 274],
  ["Cc1sc2ncnc(N3CCOCC3)c2c1C", 259],
  ["CCOc1ncnc2sc(C)c(C)c12", 575]
]}

Please look at the following compound next.
Query the reported AC50 for BtGH84 (Bacteroides thetaiotaomicron); item: c1nc(N2CCOCC2)c2ccsc2n1
702

###

Below, each entry is listed alongside its reported Vmax(app).
Target: BtGH84 (Bacteroides thetaiotaomicron, UniProt Q89ZI2)
Construct: made in house
Test: 4MU-GlcNAc cleavage assay (fluorescent kinetic enzyme activity assay)
Type: biochemical
Details: Michaelis–Menten fit, 1 % DMSO, substrate 50 μM to 2 mM; activator concentration 2 mM
Respond numerically; units are µmol/min and should not be typed.

{"columns": ["COMPOUND_STRUCTURE", "SCALE_UNIT", "Vmax(app)"],
 "data": [
  ["Cc1sc2ncnc(N3CCOCC3)c2c1C", "µmol/min", 0.026],
  ["c1nc(N2CCOCC2)c2ccsc2n1", "µmol/min", 0.015],
  ["CCOc1ncnc2sc(C)c(C)c12", "µmol/min", 0.022]
]}

Now look at this entry.
State the recorded Vmax(app) for this entry: CCc1cc2c(N3CCOCC3)ncnc2s1
0.024

###

Molecular target: BtGH84 (Bacteroides thetaiotaomicron)
Construct: made in house
Experiment: Isothermal titration calorimetry (ITC)
Format: binding
Conditions: in the presence of 2 (10 mM); 25°C
Protocol: AC50 measurements of fragment activators were performed using a fluorescent kinetic assay. […] Fluorescent 4-methylumbelliferyl release was recorded continuously at 355 nm excitation and 460 nm emission for 20 s using a BMG PolarStar Optima plate reader. Rates were calculated using Sigmaplot as the slope of the curve of the collected data. […] Apparent KM and Vmax values were calculated from a Michalis-Menten curve fit to 8-10 point substrate titrations at a constant concentration of the activator. […]
ENDPOINT: Kd
Remember to follow the number with its unit.

# input compound: CC(=O)N[C@H]1/C(=N/OC(=O)Nc2ccccc2)O[C@H](CO)[C@@H](O)[C@@H]1O ; wanted: its Kd
1.1 µM

FYI, the data here is from paper PMC4501319.
